- target_entity: hpol κ^19–526 (Homo sapiens, UniProt Q9UBT6)
- Sequence (Q9UBT6 19-526): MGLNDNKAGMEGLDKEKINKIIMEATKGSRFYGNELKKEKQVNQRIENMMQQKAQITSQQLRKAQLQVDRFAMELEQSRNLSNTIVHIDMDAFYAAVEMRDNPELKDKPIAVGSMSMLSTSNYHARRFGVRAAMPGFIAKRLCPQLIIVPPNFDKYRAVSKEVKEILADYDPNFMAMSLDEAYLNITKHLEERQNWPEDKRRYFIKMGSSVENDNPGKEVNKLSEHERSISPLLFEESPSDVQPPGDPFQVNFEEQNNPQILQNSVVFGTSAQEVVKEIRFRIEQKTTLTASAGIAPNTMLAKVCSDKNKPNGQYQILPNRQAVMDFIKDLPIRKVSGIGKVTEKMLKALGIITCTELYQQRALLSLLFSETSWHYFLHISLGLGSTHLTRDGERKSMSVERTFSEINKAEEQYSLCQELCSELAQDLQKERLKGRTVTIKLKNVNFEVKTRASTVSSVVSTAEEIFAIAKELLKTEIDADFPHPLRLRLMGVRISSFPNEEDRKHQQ
- Type: binding
- condition: read-out: Kd,DNA (polymerase binding to primer-template DNA); 250 μM MK886
outcome_measure: Kd (µM)
// return numeric value only (unit: µM, not printed)

-- ask # get_value(readout= Kd, system= hpol κ^19–526 (Homo sapiens, UniProt Q9UBT6)) for CC(C)c1ccc2c(c1)c(SC(C)(C)C)c(CC(C)(C)C(=O)O)n2Cc1ccc(Cl)cc1 [MK886]
-- reply 0.0679

These entries and their values trace back to paper PMC3578163.
